Target: T1, Fibrinogen fragment D (human, UniProt P02671 130-216; P02675 164-491; P02679 114-432, limits assumed)
T1 construct: domain: Fragment D (or D-domain); Made by plasmin digestion of human fibrinogen and purified on GPRPAA beads; holds the C-terminal polymerization pockets without the N-terminal knobs; immobilised by amine coupling on the SPR chip; also called D-domain
T1 sequence (looked up) 1: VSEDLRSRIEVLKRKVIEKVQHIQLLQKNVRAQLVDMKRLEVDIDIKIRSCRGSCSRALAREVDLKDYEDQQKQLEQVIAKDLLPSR
T1 sequence (looked up) 2: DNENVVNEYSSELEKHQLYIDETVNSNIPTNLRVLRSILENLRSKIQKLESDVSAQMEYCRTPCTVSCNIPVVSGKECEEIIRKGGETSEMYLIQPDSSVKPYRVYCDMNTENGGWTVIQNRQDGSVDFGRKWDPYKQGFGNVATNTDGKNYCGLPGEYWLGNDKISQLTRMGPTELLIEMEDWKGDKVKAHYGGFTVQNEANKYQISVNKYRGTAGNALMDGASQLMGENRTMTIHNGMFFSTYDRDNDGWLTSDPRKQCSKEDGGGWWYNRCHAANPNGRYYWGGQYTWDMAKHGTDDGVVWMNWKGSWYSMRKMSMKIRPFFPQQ
T1 sequence (looked up) 3: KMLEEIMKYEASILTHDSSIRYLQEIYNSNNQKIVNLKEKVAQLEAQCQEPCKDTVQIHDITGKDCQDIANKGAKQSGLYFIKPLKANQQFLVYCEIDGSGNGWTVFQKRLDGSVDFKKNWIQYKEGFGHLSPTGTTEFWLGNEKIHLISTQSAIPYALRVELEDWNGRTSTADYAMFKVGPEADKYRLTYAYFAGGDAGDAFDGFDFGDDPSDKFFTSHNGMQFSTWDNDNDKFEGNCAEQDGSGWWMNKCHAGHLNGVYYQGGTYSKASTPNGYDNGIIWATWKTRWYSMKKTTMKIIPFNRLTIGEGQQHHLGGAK
Assay: SPR (Biacore 2000), fragment D immobilised, Langmuir 1:1 model
measured.quantity: Bmax (maximal binding capacity of fragment D) (RU)

binder: GPRPPERC (Synthetic (GenScript); also called knob 'A' peptide)
uom: RU
numeric.readout: 19.2
//
binder: GPRPAAC (Synthetic (GenScript); kept reduced with immobilised TCEP; also called gold standard GPRP mimic; knob 'A' peptide)
uom: RU
numeric.readout: 21.5
//
binder: GPRVVERC (Synthetic (GenScript); also called knob 'A' peptide)
uom: RU
numeric.readout: 16.3
//
binder: GPRPFPAC (Synthetic (GenScript); also called knob 'A' peptide)
uom: RU
numeric.readout: 17.7
//
binder: GPRVVAAC (Synthetic (GenScript); also called knob 'A' peptide)
uom: RU
numeric.readout: 18.9
